Target: MAO-B (Homo sapiens, UniProt P27338)
Construct: purchased Sigma-Aldrich
Sequence (P27338 1-520): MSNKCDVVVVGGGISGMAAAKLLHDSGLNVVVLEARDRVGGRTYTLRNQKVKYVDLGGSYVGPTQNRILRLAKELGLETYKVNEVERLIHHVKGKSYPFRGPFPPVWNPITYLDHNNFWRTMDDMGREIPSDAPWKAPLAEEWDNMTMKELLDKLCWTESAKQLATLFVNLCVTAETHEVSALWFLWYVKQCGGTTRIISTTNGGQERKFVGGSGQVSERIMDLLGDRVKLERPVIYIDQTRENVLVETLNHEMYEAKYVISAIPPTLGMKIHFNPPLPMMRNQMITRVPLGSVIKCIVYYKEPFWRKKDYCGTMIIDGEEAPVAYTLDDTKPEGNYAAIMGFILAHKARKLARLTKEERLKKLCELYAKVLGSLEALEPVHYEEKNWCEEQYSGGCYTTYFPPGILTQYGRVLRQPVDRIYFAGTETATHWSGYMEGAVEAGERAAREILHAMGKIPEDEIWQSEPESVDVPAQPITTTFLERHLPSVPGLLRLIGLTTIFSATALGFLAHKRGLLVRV
Assay: continuous spectrophotometric MAO-B inhibition assay
Assay type: biochemical
Conditions: 10 μM
Label rule, in plain words: inhibition at 10 µM of 90% and up is True, under 90% is False.

1) CC(=O)Oc1ccc2cc(-c3ccc(OC(F)(F)F)cc3)c(=O)oc2c1 :: True
2) COc1ccc(-c2cc3ccc(OC(C)=O)cc3oc2=O)cc1 :: False
3) COc1cc(OC)cc(-c2cc3cc(OC)ccc3oc2=O)c1 :: False
4) CC(=O)Oc1ccc2cc(-c3ccc(N(C)C)cc3)c(=O)oc2c1 :: False
5) Cc1ccc2oc(=O)c(-c3ccc(C(F)(F)F)cc3)cc2c1 :: True
6) COc1ccc2oc(=O)c(-c3cc(F)c(F)cc3F)cc2c1 :: False
7) COc1ccc2oc(=O)c(-c3ccc(C(F)(F)F)cc3)cc2c1 :: True
8) Cc1ccc2oc(=O)c(-c3ccc(F)cc3)cc2c1 :: False
9) COc1cccc(-c2cc3cc(OC)ccc3oc2=O)c1 :: True
10) COc1ccc2cc(-c3cc(F)c(F)cc3F)c(=O)oc2c1 :: False
11) COc1ccc2oc(=O)c(-c3ccc(OC(F)(F)F)cc3)cc2c1 :: True
12) C#CCN(C)Cc1ccccc1 [pargyline, reference compound] :: True
13) COc1ccc2cc(-c3ccc(O)c(F)c3)c(=O)oc2c1 :: True
14) COc1ccc(-c2cc3cc(OC)ccc3oc2=O)cc1 :: True
15) COc1ccc(-c2cc3cc(OC(C)=O)ccc3oc2=O)cc1 :: False
16) COc1ccc2cc(-c3ccc(OC(C)=O)c(F)c3)c(=O)oc2c1 :: True
17) COc1ccc2oc(=O)c(-c3ccc(N(C)C)cc3)cc2c1 :: True
18) COc1ccc2oc(=O)c(-c3ccc(O)c(F)c3)cc2c1 :: True
19) COc1ccc(-c2cc3ccc(O)cc3oc2=O)cc1 :: False

###

Molecular target: MAO-B (Homo sapiens)
Construct: purchased Sigma-Aldrich
Sequence (P27338 1-520): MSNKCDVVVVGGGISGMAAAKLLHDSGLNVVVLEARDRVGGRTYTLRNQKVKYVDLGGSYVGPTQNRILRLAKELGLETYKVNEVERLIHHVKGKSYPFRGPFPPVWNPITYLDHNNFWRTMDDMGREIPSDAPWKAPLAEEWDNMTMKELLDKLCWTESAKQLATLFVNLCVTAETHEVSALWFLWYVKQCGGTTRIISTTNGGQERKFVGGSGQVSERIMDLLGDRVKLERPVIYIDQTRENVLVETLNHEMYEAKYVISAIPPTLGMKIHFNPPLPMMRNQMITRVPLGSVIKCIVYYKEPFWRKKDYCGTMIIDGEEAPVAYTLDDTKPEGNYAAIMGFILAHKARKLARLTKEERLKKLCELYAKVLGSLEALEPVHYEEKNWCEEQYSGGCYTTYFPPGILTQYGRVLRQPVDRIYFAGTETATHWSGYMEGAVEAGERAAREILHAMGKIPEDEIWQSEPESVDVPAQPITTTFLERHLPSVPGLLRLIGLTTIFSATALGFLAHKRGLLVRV
Experiment: continuous spectrophotometric MAO-B inhibition assay
Type: biochemical
Conditions: 10 µM, 2h
This section presents compounds with their documented MAO-B inhibition % values.
experimental readout: MAO-B inhibition % (%)

1. O=c1oc2cc(O)cc(O)c2cc1-c1cccc(O)c1 :: 23.30
2. O=c1oc2cc(O)ccc2cc1-c1cccc(O)c1 :: 25.74
3. CC(=O)Oc1cccc2cc(-c3ccc(F)cc3)c(=O)oc12 :: 15.81
4. O=c1oc2c(Cl)cc(Cl)cc2cc1-c1ccc(F)cc1 :: 10.23
5. COc1ccc(-c2cc3cccc(OC(C)=O)c3oc2=O)cc1 :: 42.37
6. CC(=O)Oc1ccc2cc(-c3ccc(F)cc3)c(=O)oc2c1 :: 59.20
7. COc1cc(OC)cc(-c2cc3cc(Cl)cc(Cl)c3oc2=O)c1 :: 46.01
8. COc1cccc(-c2cc3ccc(OC)cc3oc2=O)c1 :: 67.49
9. O=c1oc2ccccc2cc1-c1ccc(O)cc1 :: 53.65
10. COc1ccc(-c2cc3ccc(OC)cc3oc2=O)cc1 :: 39.78
11. O=c1oc2ccc(O)cc2cc1-c1ccc(O)cc1 :: 15.50
12. O=c1oc2c(CN3CCCCC3)c(O)ccc2cc1-c1ccccc1 :: 8.16
13. Cc1ccc(-c2cc3ccc(O)cc3oc2=O)cc1 :: 61.91
14. O=c1oc2cc(O)ccc2cc1-c1ccc(F)cc1 :: 26.44
15. O=c1oc2c(O)cccc2cc1-c1cccc(O)c1 :: 22.93
16. CC(=O)Oc1cccc2cc(-c3ccc(N(C)C)cc3)c(=O)oc12 :: 66.79
17. O=c1oc2c(O)cccc2cc1-c1ccc(O)cc1 :: 22.52
18. COc1ccc2oc(=O)c(-c3ccc(Oc4ccc(F)cc4)cc3)cc2c1 :: 19.73
